- Test system: OVCAR-4 ovarian
- protocolNotes: NCI-60 one-dose screen, 48 h
- measurementSetup: 10 µM unless noted
About 83,000 compounds went through this panel and 20% of them were active in at least one assay; those are over-represented in the sample as a whole. Activity calls are given as the source filed them. Rule for the calls: active = growth percent below 10; inactive = the rest.
Write down the outcome that applies. Available outcomes: active, inactive

Worked examples follow.
[
  {
    "compound": "CSc1nnc(C2=CC(=O)c3ccccc3C2=O)n1-c1ccccc1",
    "measuredTarget": "OVCAR-4 ovarian",
    "className": "inactive"
  },
  {
    "compound": "O=C(CSc1nnc(Nc2ccccc2)s1)NCCc1ccc(F)cc1",
    "measuredTarget": "OVCAR-4 ovarian",
    "className": "inactive"
  },
  {
    "compound": "O=c1c(O)cccn1CCCNCCCN(CCCn1cccc(O)c1=O)CCCn1cccc(O)c1=O",
    "measuredTarget": "OVCAR-4 ovarian",
    "className": "inactive"
  },
  {
    "compound": "O=C(/C=C/c1ccc(O)c(O)c1)N1CCN(c2ccc(Cl)cc2)CC1",
    "measuredTarget": "OVCAR-4 ovarian",
    "className": "inactive"
  },
  {
    "compound": "COc1ccc2c(c1)C(=O)/C(=C/c1ccc([N+](=O)[O-])s1)O2",
    "measuredTarget": "OVCAR-4 ovarian",
    "className": "active"
  }
]

Then there is this compound:
Exam item: Any idea what this test logged for `C/C(=N\N1CC(=O)NC1=O)c1ccc([N+](=O)[O-])o1` ?
Marked response: inactive

---

- Test system: U251 CNS
- protocolNotes: NCI-60 one-dose screen, 48 h
- measurementSetup: 10 µM unless noted
This is part of a sample that, as a whole, favours compounds with a hit. Of some 83,000 tested, about 20% had one in any assay. Active and inactive are the calls of the source. Rule for the calls: active = growth percent below 10; inactive = the rest.
Write down the outcome that applies. Available outcomes: TRUE for active, FALSE for inactive

[
  {
    "compound": "CC/C(=C\\c1ccc(N(C)C)cc1)c1ccncc1",
    "className": "FALSE"
  },
  {
    "compound": "CCC1=C(c2ccc(OC)cc2)C(C)(C)Oc2cc(O)c(CN3CCCC3)cc21",
    "className": "FALSE"
  },
  {
    "compound": "CCN(CC)CCCNCCCNc1cc(OC)cc2cccnc12",
    "className": "FALSE"
  },
  {
    "compound": "CN(C)c1ccc(/C=C(\\C#N)c2nc3ccccc3c(=O)[nH]2)cc1",
    "className": "FALSE"
  },
  {
    "compound": "COc1ccc(-c2cncn2-c2ccc(-c3nc4cc(OC)c(OC)c(OC)c4s3)cc2)cc1N",
    "className": "FALSE"
  },
  {
    "compound": "C[N+]1(CCc2ccccc2)CCC(CCC2CC[N+](C)(CCc3ccccc3)CC2)CC1 (stereo unspecified)",
    "className": "FALSE"
  }
]

Exam item: Any idea what this test logged for `Cc1c(C(N)=O)sc2ncn(CC(=O)Nc3ccc(Cl)cc3)c(=O)c12` ?
Marked response: FALSE

Exam item: Try the compound `Cc1nc2c(O)cccc2cc1CO`
Marked response: FALSE

Exam item: Try the compound `CCCc1cc(=O)n2c(C(=O)Nc3ccccc3OC)c(C(=O)Nc3ccc(F)cc3)sc2n1`
Marked response: FALSE

Exam item: Try the compound `COc1ccc(CCN2CCCN3C2=Nc2ccccc2S3(=O)=O)cc1`
Marked response: FALSE

Exam item: Try the compound `Nc1ncc(-c2cnn(C3CCNCC3)c2)cc1-c1nc2cc(Cl)ccc2o1`
Marked response: TRUE

Exam item: Try the compound `CCCCn1c(Cc2ccc(Cl)cc2)nc2cc(OC)c(OC)cc2c1=O`
Marked response: FALSE

Exam item: Try the compound CC(c1ccccn1)C(C)(O)C(C)c1ccccn1 (stereo unspecified)
Marked response: FALSE

Exam item: Try the compound `Cn1cc(-c2csc(-c3cn(C)c4ncccc34)n2)c2cc(Br)cnc21`
Marked response: FALSE
